# System: LOX IMVI melanoma
# Protocol notes: NCI-60 one-dose screen, 48 h (100 = growth as untreated, 0 = no growth, -100 = all killed)
# Recorded conditions: 10 µM unless noted
# Description: Growth inhibition of the LOX IMVI human tumor cell line is measured as a screen for anti-cancer activity. Cells are grown in 96 well plates and exposed to the test compound for 48 hours. Compounds are tested at a single concentration, which is 10^-5 M for most compounds. The reported endpoint is percent growth (GI% or GIPRCNT), where numbers from 0 - 100% represent growth inhibition, and numbers from -100% - 0 represent cell death. For example, a value of 40 represents 60% growth inhibition. […]
This is part of a sample that, as a whole, favours compounds with a hit. Of some 83,000 tested, about 20% had one in any assay.
Overview of recorded growth for various molecules
Answer in %, number only, no unit symbol.

Past entries and their recorded results:
Molecule: COc1ccc(/C=C2\CCCC3=C2N=C2SC(C)=NN2C3c2ccc(OC)c(OC)c2)cc1OC (centres undefined)
Measured on: LOX IMVI melanoma
U: %
growth: 1.41
--
Molecule: CC(=O)c1c(O)c(C)c(O)c2c1OC1=CC(=O)/C(=C(/C)N)C(=O)C12C (centres undefined)
Measured on: LOX IMVI melanoma
U: %
growth: 86.6
--
Molecule: CCCc1n(Cc2ccc3ccccc3n2)cc[n+]1Cc1ccc2ccccc2n1
Measured on: LOX IMVI melanoma
U: %
growth: 18
--
Molecule: Cn1nc(C(F)(F)F)cc1-c1c[nH]c(OCc2ccc(Cl)cc2)c(-c2ccc(Cl)c(C(F)(F)F)c2)c1=O
Measured on: LOX IMVI melanoma
U: %
growth: 7.07
--
Molecule: CCN(CC)CCCC(C)N/C(c1cccc(OC)c1)=c1\c(=O)[nH]n(-c2c3ccccc3nc3ccccc23)c(=O)\c1=C(/NC(C)CCCN(CC)CC)c1cccc(OC)c1 (centres undefined)
Measured on: LOX IMVI melanoma
U: %
growth: -66.1

Query: Lab note: need growth with LOX IMVI melanoma for entry Cc1cc(C)c2c(n1)sc1c(Nc3ccc(Cl)cc3Cl)ncnc12 , please look it up.
Result: 10.2

Query: Then what about the molecule N#CC1=C(N)Oc2nc[nH]c(=O)c2C1c1cccs1 (centres undefined) ?
Result: 100

Query: Request: Cc1ccc(NC(=O)c2[nH]c(SCCN(C)C)nc2-c2ccc(F)cc2)cc1Nc1ccc2ncn(C)c(=O)c2c1
Result: 28

Query: Query O=C(NNC(=S)Nc1ccccc1)c1ccc(Nc2ncnc3c2cnn3-c2cccc(Br)c2)cc1 next
Result: 97.3

---

# Tested on: KM12 colon
# Protocol notes: NCI-60 one-dose screen, 48 h
# Recorded conditions: 10 µM unless noted
This is part of a sample that, as a whole, favours compounds with a hit. Of some 83,000 tested, about 20% had one in any assay. The source made the active and inactive calls. The calls were made as follows: active = growth percent below 10; inactive = the rest.
Classes to choose from: class 1 for active, class 0 for inactive

Compound: COc1ccc2[nH]c(C(=O)OCc3ccc4cccc(O)c4n3)cc2c1
Measured on: KM12 colon
Assigned category: class 0

Query: Test call for this compound, please: COc1cccc2nc(Nc3cccc(NC(=O)c4cc(N5CCOCC5)cc(C(F)(F)F)c4)c3)ccc12
Result: class 0

Query: Thanks! And CN1CCN(Cc2ccc(NC(=O)c3cncc(C#Cc4cnc5cccnn45)c3)cc2C(F)(F)F)CC1 ?
Result: class 1

Query: Next compound up: Cc1ccc(N=CNN=C(N)N)cc1
Result: class 0

---

# System: MDA-MB-231 breast
# Protocol notes: NCI-60 one-dose screen, 48 h (100 = growth as untreated, 0 = no growth, -100 = all killed)
# Recorded conditions: 10 µM unless noted
The panel holds about 83,000 compounds, 20% with a hit somewhere; the sample as a whole holds those more often.
Catalogue of growth values
The reply should contain only the number, in %.

The following compounds have reported results that may help.
Compound: COc1ccc(-c2cn(-c3cccc(C(=O)/C=C/c4ccc(O)c(OC)c4)c3)c(=O)[nH]2)cc1
Measured on: MDA-MB-231 breast
growth / %: 38.9

Compound: CCc1ccc(Nc2ncnc3c2cnn3-c2cccc(Br)c2)cc1
Measured on: MDA-MB-231 breast
growth / %: 103

Compound: C=C(C)[C@@H]1CC[C@]2(C)[C@H](CC=C3[C@@H]4C[C@](C)(C(=O)N5CCN(C)CC5)CC[C@]4(C)CC[C@]32C)[C@@]1(C)CCC#N
Measured on: MDA-MB-231 breast
growth / %: 85.9

Compound: COc1ccc(NC(=O)/C=C/c2ccc(NC(=O)N3CCCC3)cc2)cn1
Measured on: MDA-MB-231 breast
growth / %: 97.5

Query: State the recorded growth for this entry: c1ccc(C(Nc2ccccn2)(c2ccccc2)c2ccccc2)cc1
Result: 66.8

Query: What about CCc1ccc(Nc2cc(C)c3ccc(O)cc3n2)cc1 ?
Result: 31.1

Query: // repeat for COc1ccc(-c2[nH]nc(N)c2-c2cc(OC)c(OC)c(OC)c2)cc1 and report
Result: -10.6

Query: Entry CNC(=O)c1cc(Oc2ccc(NC(=O)c3[nH]c(SC)nc3-c3ccc(F)cc3)cc2)ccn1 please
Result: 62.9

Query: Please do the same for CC(C)COC(=O)NC(C)(C)C as well.
Result: 119

Query: Param item: CC(=O)c1cc(C(=O)c2ccc3c(c2)Sc2ccccc2N3)c2c(C)cccn12
Result: 19.7

Query: One more compound: C=CCN(CCOC(=O)c1ccc([N+](=O)[O-])cc1)CCOC(=O)c1ccc([N+](=O)[O-])cc1
Result: 96.2

Query: Same question for CCCCCCCCCCCC1=NC(C)(C)CN1C(C)(C)CO please.
Result: 57.7

Query: Also need CC(=O)c1c(O)c(C)c(O)c2c1OC1=CC(=O)/C(=C(/C)N)C(=O)C12C (stereo unspecified) , thanks.
Result: 90.8

Query: Now the compound COc1ccc(/C(=C\c2ccc3c(c2)OCO3)C(=O)Nc2nc3ccc(F)cc3s2)cc1OC
Result: 109

Query: Would you mind doing CCOC(=O)c1ccc(NC(=O)NC2=NCCS2)cc1 as well?
Result: 51.8

Query: Param item: CCN(CC)CCCC(C)Nc1cnc(C(=O)Nc2cccc3ccc(OC)nc23)cn1 (stereo unspecified)
Result: 71.8

Query: Queued: COc1cc(C2=NOC(c3cc(OC)c(OC)c(OC)c3)C2)ccc1OCCCCOc1cc2c(cc1OC)C(=O)N1CCC[C@H]1C=N2 (stereo partly specified)
Result: 12.3

Query: Same question for CC1=NOCC(=O)N1 please.
Result: 102

Query: Next compound: COc1cc(NC(C)CCCN)c2ncccc2c1Sc1ccc(Cl)cc1 (stereo unspecified)
Result: 36

Query: Same question for COC(=O)C1(C)COP(=O)(NC23CC4CC(CC(C4)C2)C3)OC1 (stereo unspecified) please.
Result: 119

Query: Now try Cc1nn(-c2ccc(Cl)cc2)c(=O)n1CCN1CCOCC1 .
Result: 57.3

---

# Tested on: HCT-15 colon
# Protocol notes: NCI-60 one-dose screen, 48 h (100 = growth as untreated, 0 = no growth, -100 = all killed)
# Recorded conditions: 10 µM unless noted
The panel holds about 83,000 compounds, 20% with a hit somewhere; the sample as a whole holds those more often.
In this section, each of the compounds is paired with its reported growth.
Answer format: numeric, % implied, no suffix.

Known results for compounds:
Compound: COc1ccccc1/C=N\NC(=S)Nc1ccc(F)cc1
growth (%): 50.8
--
Compound: O=[N+]([O-])c1cccc(N=C(Nc2cccc([N+](=O)[O-])c2)c2ccccc2)c1
growth (%): 68.3
--
Compound: CN(C)c1ccc(C(c2ccccc2)c2ccc(N(C)C)cc2)cc1
growth (%): 99.7

Query: Could you tell me which growth is on file for COc1cc(C(=O)/C=C/c2cn(-c3ccccc3)nc2-c2cccc(Nc3ccnc4cc(Cl)ccc34)c2)cc(OC)c1OC ?
Result: 87.4

Query: Note, next up: COc1ccc(/C(=C\c2ccc3c(c2)OCO3)C(=O)Nc2nc3ccccc3s2)cc1
Result: 93.2

Query: Next record, please: CCNS(=O)(=O)c1ccc(C)cc1
Result: 98.5

Query: Next compound up: CC1=C(C(=O)Nc2ccc(F)cc2)C(c2ccccc2)C2=C(CC(C)(C)CC2=O)N1 (stereo not given)
Result: 77.8

---

# Test system: OVCAR-8 ovarian
# Protocol notes: NCI-60 one-dose screen, 48 h (100 = growth as untreated, 0 = no growth, -100 = all killed)
# Recorded conditions: 10 µM unless noted
The panel holds about 83,000 compounds, 20% with a hit somewhere; the sample as a whole holds those more often.
Measured endpoint: growth (%)
Numbers only here, please. The scale is %.

Molecule: CCC1CCc2nc3sc(C(=O)Nc4cccc(F)c4)c(N)c3cc2C1 (stereo unspecified)
Measured endpoint: growth
Recorded result: 86.6
//
Molecule: CC(=O)c1cccc(Nc2ncnc3ccc(NC(=O)c4ccco4)cc23)c1
Measured endpoint: growth
Recorded result: 92.1
//
Molecule: COc1ccc(C2C=C(c3ccc(Cl)cc3)N=C3SC=CN32)cc1 (stereo unspecified)
Measured endpoint: growth
Recorded result: 104
//
Molecule: Nc1nc(N)c2cc(Sc3ccc(Cl)cc3)ccc2n1
Measured endpoint: growth
Recorded result: 34.8
//
Molecule: COc1cccc2nc(Nc3cccc(NC(=O)c4cc(N5CCOCC5)cc(C(F)(F)F)c4)c3)ccc12
Measured endpoint: growth
Recorded result: 52.2

Query: Would you kindly share the measured growth for CCCCCCCCCCCCCCCc1cc(O)ccc1[N+](=O)[O-] ?
Result: 76.9
